test system: Plasmodium berghei; assay: Screen against P. berghei liver stage (PbLuc), transformed with Luciferase, at 10uM; assay type: functional, HepG2; conditions: tested at 10 uM
About 8,600 (12%) of roughly 69,000 compounds showed an effect of 50% or more. The sample holds strong results, similar compounds and a random draw of the others, so the mix is not that of the screen.
EXPERIMENTAL_ENDPOINT: INHIBITION (%)
Kindly provide the numeric value in % only, without the unit symbol.

Notebook: COc1ccc(C2(NC(=O)C3CC(=O)N(C)C3)CCCC2)cc1 (configuration not stated) , INHIBITION read as 26

Notebook: CCN1CC2(CC1=O)CN(C(=O)C(C)C)CCN(S(C)(=O)=O)C2 (configuration not stated) , INHIBITION read as 46.7

Notebook: CN(C)C(=O)C1CN(Cc2ccsc2)CCN(S(C)(=O)=O)C1 (configuration not stated) , INHIBITION read as 20.8

Notebook: CC(c1cccc(Cl)c1)N(C)CCS(=O)(=O)CCC(N)=O (configuration not stated) , INHIBITION read as 37.8

Notebook: "CS(=O)(=O)CC(=O)N1C[C@H]2CCC[C@@]2(COCc2ccncc2)C1" , INHIBITION read as 31.2

Notebook: "O=C(c1ccoc1)N1CC[C@@H]2[C@H]1CCC(=O)N2c1ccccc1" , INHIBITION read as 43.2

Notebook: COc1ccccc1N1CCC(NCc2c(C)noc2C)C1 (configuration not stated) , INHIBITION read as 1.94

Notebook: "Cc1nc(Nc2cnccn2)cc(C2CN(C(C)C)C2)n1" , INHIBITION read as -21.4

Notebook: CCn1ncnc1CN1CCC(CNC(=O)c2cccnc2O)C1 (configuration not stated) , INHIBITION read as -11.3

Notebook: Cc1ccc(C(C)N(C)CCS(=O)(=O)CCC(N)=O)cc1 (configuration not stated) , INHIBITION read as 56.3

Notebook: O=C1C(Nc2ncccn2)CCN1c1ccccc1OC(F)F (configuration not stated) , INHIBITION read as -10.7

Notebook: CCN1CC2(CC1=O)CN(C(=O)C(C)C)CCN(S(=O)(=O)CC)C2 (configuration not stated) , INHIBITION read as 52.3

Notebook: NC(=O)C1CCN(C(=O)CCCc2nnc(-c3ccccc3)o2)C1 (configuration not stated) , INHIBITION read as 14.4

Notebook: N#Cc1nccnc1NC1CCN(c2ccccc2OC(F)F)C1 (configuration not stated) , INHIBITION read as 36.5

Notebook: "O=C(N[C@H]1CN(Cc2ccsc2)[C@@H]2CCCO[C@H]12)C1CC1" , INHIBITION read as 48.2

Notebook: "CCC(=O)N1CCC(c2nc(N3CCOCC3)ncc2S(C)(=O)=O)CC1" , INHIBITION read as 36

Notebook: "OCCCc1nncn1-c1cccc(C(F)(F)F)c1" , INHIBITION read as 33.4

Notebook: O=C(Nc1ccccn1)NC1CCN(c2ccccc2OC(F)F)C1 (configuration not stated) , INHIBITION read as 67.8

Notebook: "CN(CC(=O)NCC1CCCCC1)S(=O)(=O)c1cccnc1" , INHIBITION read as -7.93

Notebook: CSCC(C)(O)CNc1cccc(F)c1C(C)=O (configuration not stated) , INHIBITION read as 21.8

Notebook: O=C1N(Cc2cccc(Cl)c2)CCC12CCCNC2 (configuration not stated) , INHIBITION read as -15.9

Notebook: COc1cccc(OCC2CCCN(c3cc(C(N)=O)ccn3)C2)c1 (configuration not stated) , INHIBITION read as 40.7

Notebook: CC(=O)N1CCCC1c1cc(N2CCN(CC(C)(C)C)CC2)cc(C)n1 (configuration not stated) , INHIBITION read as 51.5

Notebook: CCN1CC2(CC1=O)CN(Cc1ccco1)CCN(C(=O)N(C)C)C2 (configuration not stated) , INHIBITION read as 5.14

Notebook: CC(C)n1cc(N2CC(C(=O)N3CCC(C(N)=O)CC3)CC2=O)cn1 (configuration not stated) , INHIBITION read as -23.5

Notebook: CC(=O)N1CCCC1c1cc(N2CCN(C3CCCC3)CC2)cc(C)n1 (configuration not stated) , INHIBITION read as 34.5

Notebook: O=C(Nc1ccncc1)NC1CCN(c2ccccc2OC(F)F)C1 (configuration not stated) , INHIBITION read as 79

Notebook: CCN1CC2(CC1=O)CN(Cc1ccc(C)o1)CCN(C(=O)C(C)C)C2 (configuration not stated) , INHIBITION read as 42.5

Notebook: Cc1nonc1C1CCCN1C(=O)c1cn2ccsc2n1 (configuration not stated) , INHIBITION read as -16.6

Notebook: "CSCCCN1C[C@H](NC(=O)c2ccc(C#N)nc2)[C@@H](C2CC2)C1" , INHIBITION read as 27.4

Notebook: CCN1CC2(CC1=O)CN(C(C)=O)CCN(S(C)(=O)=O)C2 (configuration not stated) , INHIBITION read as 26

Notebook: CCCC(=O)NC1CCc2c(ccc(=O)n2Cc2csc(C)n2)C1 (configuration not stated) , INHIBITION read as 17.6

Notebook: O=S(=O)(NC1CCC12CCN(CC1CCOCC1)CC2)c1ccccc1 (configuration not stated) , INHIBITION read as 36.4

Notebook: CCN1CC2(CC1=O)CN(C(=O)N(C)C)CCN(S(C)(=O)=O)C2 (configuration not stated) , INHIBITION read as 31.9

Notebook: O=C(c1cccnc1N1CCCCC1)N1CCCC(n2cccn2)C1 (configuration not stated) , INHIBITION read as -11.9

Notebook: CCc1nnc(CN(CC)C(=O)C2CC(=O)N(Cc3cccnc3)C2)o1 (configuration not stated) , INHIBITION read as 23.5

Notebook: "CN(C)C(=O)CN1C(=O)CCC12CCN(Cc1cccn1C)CC2" , INHIBITION read as 33.2

Notebook: "COCc1ncn2c1CN(C(=O)c1ccco1)CC2" , INHIBITION read as 4.57

Notebook: CCCN(C)CCC(=O)N1CCCC1Cn1cccn1 (configuration not stated) , INHIBITION read as -15.5

Notebook: Cc1ccc(OCC2CCCN(c3cc(C(N)=O)ccn3)C2)cc1 (configuration not stated) , INHIBITION read as 26.5

Notebook: CN(C)Cc1nc(C(=O)N2CCCC(COc3ccc(F)cc3)C2)cs1 (configuration not stated) , INHIBITION read as 15.7

Notebook: CCN(Cc1nc(C)no1)C(=O)C1CC(=O)N(Cc2ccccn2)C1 (configuration not stated) , INHIBITION read as -14.1

Notebook: "O=c1[nH]ncn1-c1cccc(C(F)(F)F)c1" , INHIBITION read as 42.1

Notebook: "CC(C)c1ncc2c(n1)CN(Cc1cccc(C(N)=O)c1)CC2" , INHIBITION read as -34

Notebook: COc1ccccc1N1CCCC(NC(=O)Nc2cccnc2)C1 (configuration not stated) , INHIBITION read as 10.7

Notebook: CSCC(C)(O)CNc1cccc(F)c1C#N (configuration not stated) , INHIBITION read as 56.5

Notebook: O=C(NC1CCN(c2ccccc2OC(F)F)C1)c1c[nH]nn1 (configuration not stated) , INHIBITION read as -39.7
